Test system: KM12 colon
Experiment: NCI tumour cell line growth inhibition, 48 h
readout label: TGI

Past entries and their recorded results:
compound	reported
O=C1C2=Nc3ccccc3C(O)N2c2ccccc21 (stereo not given)	> 100 µM
C/C(=N\Oc1cc(Cl)ncn1)c1ccccn1	> 100 µM
NCCCCN(CCCN)C(=O)c1ccccc1	> 100 µM
Cc1ccc([N+](=O)[O-])cc1NC(=O)C(=O)C(C(=O)c1ccccc1F)C1OC(=O)c2ccccc21 (stereo not given)	> 100 µM

Next item in the queue.
Please supply the value of reported TGI for the item N#C/C(=C\c1ccc(O)c(O)c1)C(=O)NC1CCC(CC2CCC(NC(=O)/C(C#N)=C/c3ccc(O)c(O)c3)CC2)CC1 (stereo not given)
2.92 µM
